GI50 overview
tested on: OVCAR-4; test: NCI tumour cell line growth inhibition, 48 h
Activity calls are given as the source filed them. No stated cut-off is given here; in the data, active = GI50 up to about 1.1 µM and inactive = higher.

Req: Please indicate GI50 recorded for CCc1nc(N)nc(N)c1-c1ccc(Cc2ccccc2)c([N+](=O)[O-])c1
Resp: 16.6 µM (inactive)

Req: Give the reported value of GI50 for this record: O=C1C2SC34c5c2c2ccccc2n5CCC3CCCN14 (stereo not given)
Resp: 37.5 µM (inactive)

Req: Give recorded GI50. Cc1c(C)c(S(=O)(=O)N(CCCCCN)OCCCN)c(C)c2c1OC(C)(C)CC2
Resp: 3.96 µM (inactive)

Req: Query GI50 for CCOC(=O)C(NC(=O)c1cccc(Cl)c1)(Nc1ccc(S(=O)(=O)Nc2cc(C)nc(C)n2)cc1)C(F)(F)F (stereo not given)
Resp: > 100 µM (inactive)

Req: Return GI50 for the following molecule: C[N+](C)(C)C1(C(=O)[O-])CC1
Resp: > 100 µM (inactive)

====

test system: T47D; experiment: NCI tumour cell line growth inhibition, 48 h
Active and inactive are the calls of the source. Cut-off read from the data, not from the text of the source: active = GI50 up to about 1.1 µM and inactive = higher.
attribute-measured: GI50

Use the examples below as a reference point.
>  <compound>
O=C1CS(=O)(=O)C(c2cccc(Oc3ccccc3)c2)N1C1CC1 (stereo not drawn)

>  <GI50>
35 µM (inactive)

$$$$
>  <compound>
C#C[C@]1(O)[C@@H](CO)O[C@@H](n2ccc(N)nc2=O)[C@@H]1O

>  <GI50>
< 0.015 µM (active)

$$$$
>  <compound>
N#Cc1nc(CCCCCN2C(=O)c3ccccc3C2=O)oc1N

>  <GI50>
> 100 µM (inactive)

$$$$
>  <compound>
CCc1nc(N)nc(N)c1-c1ccc(Cc2ccccc2)c([N+](=O)[O-])c1

>  <GI50>
6.95 µM (inactive)

$$$$
>  <compound>
CN(C)/C=N/S(=O)(=O)c1nn2c(C=O)c(-c3ccc(Cl)cc3)nc2s1

>  <GI50>
1.67 µM (inactive)

$$$$

Req: // fetch GI50 given entry Clc1ccc(CSCCc2ccncc2)cc1Cl
Resp: 26.3 µM (inactive)

Req: Please report the measured GI50 for Oc1nc2c(c(-c3ccccc3Cl)n1)COC/C2=C\c1ccccc1Cl
Resp: > 100 µM (inactive)

Req: Check the records and state GI50 for COC(=O)C1=C([C@H]2COC(C)(C)O2)[C@H]2C[C@@H]1[C@@H]1OC(C)(C)O[C@@H]12
Resp: > 100 µM (inactive)

Req: Determine its reported GI50: O=C(C=P(c1ccccc1)(c1ccccc1)c1ccccc1)C12CC3CC(CC(C3)C1)C2
Resp: 16.1 µM (inactive)

Req: Tell me GI50 reported for Cc1cc(C)c(OC(=O)Nc2cccc3ccccc23)c(-c2ccccc2)c1
Resp: 48.6 µM (inactive)

====

test system: SK-MEL-5; assay: NCI tumour cell line growth inhibition, 48 h
Calls of active or inactive are those of the source. No stated cut-off is given here; in the data, active = GI50 up to about 1.1 µM and inactive = higher.
Entries and their GI50 values follow.

>  <compound>
CCOC(=O)/C=C(/N=P(c1ccccc1)(c1ccccc1)c1ccccc1)C(F)(F)F

>  <GI50>
> 10 µM (inactive)

$$$$
>  <compound>
NC1=NC(=O)C(CC(=O)Nc2ccc([N+](=O)[O-])cc2[N+](=O)[O-])S1 (stereo unspecified)

>  <GI50>
> 100 µM (inactive)

$$$$
>  <compound>
c1ccc2cc(-c3cc4ccccc4s3)ccc2c1

>  <GI50>
> 100 µM (inactive)

$$$$
>  <compound>
Cc1c(NC(=O)CCl)c(=O)oc2c(C)c3occc(=O)c3cc12

>  <GI50>
10.9 µM (inactive)

$$$$
>  <compound>
CC#C[C@@]1(O)CCCCC1O (stereo partly specified)

>  <GI50>
> 100 µM (inactive)

$$$$

Req: # return recorded GI50 for entry N#Cc1nc(CCCCCN2C(=O)c3ccccc3C2=O)oc1N
Resp: > 100 µM (inactive)

Reference source for all entries: ChEMBL document CHEMBL1201862
